Biological target: T1, full-length untagged human GPNMB expressed on cells (human, UniProt Q14956 23-572)
T1 construct: also used here for GPNMB on human monocyte-derived macrophages in the functional assays; also called huGPNMB; Freestyle293-huGPNMB+
T1 sequence: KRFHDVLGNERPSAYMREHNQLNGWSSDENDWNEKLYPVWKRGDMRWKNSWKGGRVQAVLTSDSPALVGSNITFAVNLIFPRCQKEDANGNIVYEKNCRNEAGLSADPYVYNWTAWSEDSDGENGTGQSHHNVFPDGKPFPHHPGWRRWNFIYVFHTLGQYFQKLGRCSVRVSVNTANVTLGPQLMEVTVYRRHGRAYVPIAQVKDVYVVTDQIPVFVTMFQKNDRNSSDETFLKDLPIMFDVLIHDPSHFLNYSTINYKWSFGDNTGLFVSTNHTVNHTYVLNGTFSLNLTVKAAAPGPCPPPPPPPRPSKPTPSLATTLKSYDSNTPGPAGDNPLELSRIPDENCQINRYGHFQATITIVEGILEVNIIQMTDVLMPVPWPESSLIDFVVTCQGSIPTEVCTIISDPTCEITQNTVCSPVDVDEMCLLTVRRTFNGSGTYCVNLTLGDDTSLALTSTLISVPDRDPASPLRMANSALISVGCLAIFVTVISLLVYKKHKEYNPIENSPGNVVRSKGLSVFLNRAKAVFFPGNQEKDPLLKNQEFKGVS
Assay: FACS, FS293-huGPNMB+ cells
Property: MFI fold over background; scope: individual binders
Test Readout: MFI fold over background (fold)

- Binder: "anti-GPNMB antibody GPN-25 (antibody, human IgG1, V domains shown, chimeric) VH: EVQLQQSGPELVKPGASVKISCKASGYSFTGYYMNWVKQSPEKSLEWIGEINPGSGITTYNQKFKAKATLTVDKSSSTAYLQLKSLTSEDSAVYYCARPASWFAYWGQGTLVTVSA VL: DIQMTQSPSSLSASLGERVSFICRASQEISGHLSWLQQKPDGTIKRLIYAASTLDSGVPKRFSGSRSGSDYSLTISSLESEDFADYYCLQYASYPYTFGGGTKLEIK"
  Test Readout: "MFI fold over background"
  Value Observed: 42.7
- Binder: "anti-GPNMB antibody GPN-22 (antibody, human IgG1, V domains shown, chimeric) VH: QVQLQQPGAERVKPGASVKMSCKASGYTFTSYWITWVKQRPGQGLEWIGDIFPGSGSTNYHEKFKSKATLTVDTSSSTAYMQLSSLTSEDSAVYYCSRGYFGSSFSDYWGQGTSVTVSS VL: DIQMTQSPSSLSASLGERVSLTCRTSQEISGYLSWLQQKPDGTIKRLIYSTSTLDSGVPKRFSGSRSGSDYSLTISSLESEDFADYYCLQYASSPPTFGSGTKLEIK"
  Test Readout: "MFI fold over background"
  Value Observed: 44.8
- Binder: "anti-GPNMB antibody GPN-03 (antibody, human IgG1, V domains shown, chimeric) VH: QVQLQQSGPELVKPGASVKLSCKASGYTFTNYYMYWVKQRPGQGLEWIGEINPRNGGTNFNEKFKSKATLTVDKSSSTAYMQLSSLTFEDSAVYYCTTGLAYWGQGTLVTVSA VL: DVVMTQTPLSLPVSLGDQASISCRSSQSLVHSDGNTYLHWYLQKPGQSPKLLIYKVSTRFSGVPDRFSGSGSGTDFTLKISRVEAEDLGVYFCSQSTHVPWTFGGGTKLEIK"
  Test Readout: "MFI fold over background"
  Value Observed: 89.2
